- TARGET UNDER TEST: PXR nuclear receptor (Homo sapiens (Human))
- Sequence (O75469 whole entry): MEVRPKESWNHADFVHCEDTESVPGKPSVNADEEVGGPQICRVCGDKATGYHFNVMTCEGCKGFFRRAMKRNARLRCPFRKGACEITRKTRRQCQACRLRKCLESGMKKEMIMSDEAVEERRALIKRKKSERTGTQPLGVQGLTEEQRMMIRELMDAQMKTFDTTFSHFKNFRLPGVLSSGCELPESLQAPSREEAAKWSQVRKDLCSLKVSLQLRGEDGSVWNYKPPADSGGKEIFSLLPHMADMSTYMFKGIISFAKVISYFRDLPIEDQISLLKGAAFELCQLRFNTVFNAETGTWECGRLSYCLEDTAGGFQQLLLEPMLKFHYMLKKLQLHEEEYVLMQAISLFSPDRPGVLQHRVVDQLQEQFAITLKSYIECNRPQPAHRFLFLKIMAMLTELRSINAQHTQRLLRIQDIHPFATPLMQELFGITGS
- PROCEDURE SUMMARY: PXR method: luciferase reporter gene activation in transfected tumor cells
- Type: cell-based
- SETTINGS: compared with vehicle-treated cells, test compound 0.03-10 μM, read-out: PXR activation (Max fold induction)
MEASURED PARAMETER: fold induction at 24 h

Field: example entries. Status: answers known.
COc1ccccc1-c1cnccc1C(=O)Nc1nnc(OCc2ccc(C#N)cc2)s1 = 7.9
C=C(C1=CN=CCC1C(=O)Nc1nnc(CCC2CC2)s1)/C(=C\N=C\Cl)OC (centres unmarked) = 1.8

a: COc1ccccc1-c1cnccc1C(=O)Nc1nnc(C#Cc2ccc(Cl)cc2)s1
b: COc1ccc(F)cc1-c1cnccc1C(=O)Nc1nnc(OCc2ccc(C#N)cc2)s1
c: COc1ccccc1-c1cnccc1C(=O)Nc1nnc(OCc2ccc(Cl)cc2)s1
Put these in order: smallest fold induction at 24 h first, largest last. Provide the ranking by listing each label in its place in the requested order.
a, b, c
(a: 1.5, b: 3.9, c: 8.8)

---

Listed compounds paired with reported IC50
- TARGET UNDER TEST: PolQ ATPase enzyme (1-894) (Homo sapiens (Human), UniProt O75417)
- Sequence (O75417 1-894): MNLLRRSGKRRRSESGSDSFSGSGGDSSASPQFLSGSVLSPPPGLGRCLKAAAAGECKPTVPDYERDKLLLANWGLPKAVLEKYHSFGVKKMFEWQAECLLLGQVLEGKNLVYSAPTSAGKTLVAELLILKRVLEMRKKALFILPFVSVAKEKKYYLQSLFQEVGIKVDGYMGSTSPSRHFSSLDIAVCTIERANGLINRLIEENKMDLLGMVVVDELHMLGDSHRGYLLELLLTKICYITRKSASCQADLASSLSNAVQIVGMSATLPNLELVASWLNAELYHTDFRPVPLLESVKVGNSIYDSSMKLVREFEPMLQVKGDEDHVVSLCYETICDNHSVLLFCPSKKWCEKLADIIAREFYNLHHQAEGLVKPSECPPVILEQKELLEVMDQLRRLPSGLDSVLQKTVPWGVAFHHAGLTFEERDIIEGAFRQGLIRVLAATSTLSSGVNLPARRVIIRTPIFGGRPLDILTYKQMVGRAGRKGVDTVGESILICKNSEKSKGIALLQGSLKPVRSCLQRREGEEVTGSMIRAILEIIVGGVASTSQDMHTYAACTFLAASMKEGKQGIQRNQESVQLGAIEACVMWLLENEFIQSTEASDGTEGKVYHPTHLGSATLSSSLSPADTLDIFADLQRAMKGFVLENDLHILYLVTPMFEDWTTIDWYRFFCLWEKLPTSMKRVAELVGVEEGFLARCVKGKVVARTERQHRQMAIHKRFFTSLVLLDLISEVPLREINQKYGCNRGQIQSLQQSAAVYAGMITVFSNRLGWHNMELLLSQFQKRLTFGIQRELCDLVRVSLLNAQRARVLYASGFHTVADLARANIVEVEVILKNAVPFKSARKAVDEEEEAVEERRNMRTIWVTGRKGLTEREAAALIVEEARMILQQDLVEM
- PROCEDURE SUMMARY: Polθ ATPase enzymatic assay (0.5 nM enzyme concentration), ADP-Glo
- Type: biochemical
- SETTINGS: average IC50; 0.5 nM PolQ ATPase enzyme (1-894)

Field: example entries. Status: answers known.
NC(=O)Cn1cc(-c2cc(Cl)ncc2OC(F)F)c(C(=O)Nc2nnc(C#CC3CC3)s2)cc1=O [Compound 76] = < 0.25 nM
COc1cnc(C(F)F)cc1-c1cc(N(C)C(C)=O)ccc1C(=O)Nc1nnc(C#CC2CC2)s1 [Compound 276] = < 0.25 nM
COc1cnc(C(F)F)cc1-c1cc(-c2ccnn2C)ncc1C(=O)Nc1nnc(C#CC2CC2)s1 [Compound 127] = < 0.25 nM

Using the record for COc1cnc(C(F)F)cc1-c1cc(-n2cccc(C)c2=O)ncc1C(=O)Nc1nnc(C#CC2CC2)s1 [Compound 437] , report its IC50.
< 0.25 nM

Using the record for COc1ccccc1-c1cnccc1C(=O)Nc1nnc(C#Cc2ccc(Cl)cc2)s1 [Compound 474] , report its IC50.
7.6 nM

---

- TARGET UNDER TEST: PolQ ATPase enzyme (1-894) (Homo sapiens (Human))
- PROCEDURE SUMMARY: Polθ ATPase enzymatic assay (0.5 nM enzyme concentration), ADP-Glo
- Format: biochemical
- SETTINGS: average IC50; 0.5 nM PolQ ATPase enzyme (1-894)
- Procedure: PolQ ATPase enzyme (1-894) at 0.5 nM is incubated with a 10-point concentration response of inhibitors for 15 min at rt in the following buffer: 50 mM Tris Cl pH 7.5, 10% glycerol, 5 mM DTT, 10 mM MgCl2, 0.1 mg/ml BSA. […] Enzymatic reaction proceeds at rt for 180 min ATP consumption is measured using the ADP-Glo assay from Promega. Luminescence is read on the Envision and IC50 are determined using the variable slope 4-parameters equation. […]
MEASURED PARAMETER: IC50 (nM)

Field: example entries. Status: answers known.
COc1cnc(Cl)cc1-c1cc(N2CCC(O)C2=O)ccc1C(=O)Nc1nnc(C#CC2CC2)s1 (stereo not shown) [Compound 277] = 3.2
COc1cnc(C(F)F)cc1-c1cn(C)c(=O)cc1C(=O)Nc1nnc(C#CC2CC2)s1 [Compound 37] = 3.3

1: COc1cnc(C(F)F)cc1-c1cc(Cl)ncc1C(=O)Nc1ncc(C#CC2CC2)s1 [Compound 289]
2: COc1cnc(Cl)cc1-c1cc(CS(C)(=O)=O)ccc1C(=O)Nc1nnc(C#CC2CC2)s1 [Compound 310]
3: O=C(Nc1ncc(C#CC2CC2)s1)c1cc(=O)n(Cc2ncco2)cc1-c1cc(C(F)F)ccc1Cl [Compound 207]
Output the entries ranked by IC50 from maximum down to minimum. Provide the ranking by listing each label in its place in the requested order.
2, 3, 1
(2: 4.4 nM, 3: 2.6 nM, 1: 0.88 nM)

---

- TARGET UNDER TEST: PolQ ATPase enzyme (1-894) (Homo sapiens (Human), UniProt O75417)
- PROCEDURE SUMMARY: Polθ ATPase enzymatic assay (0.5 nM enzyme concentration), ADP-Glo
- Type: biochemical
- SETTINGS: average IC50; 0.5 nM PolQ ATPase enzyme (1-894)
MEASURED PARAMETER: IC50 (nM)

COc1cnc(C(F)F)cc1-c1cc(Nc2ccn(C)n2)ccc1C(=O)Nc1nnc(C#CC2CC2)s1 = 0.52

1: COc1cnc(C(F)F)cc1-c1cc(N2CCN3CCCC3C2=O)ncc1C(=O)Nc1nnc(C#CC2CC2)s1 (stereo not shown)
2: COc1cnc(C(F)F)cc1-c1cc(N(C)C(=O)C2(C)COC2)ccc1C(=O)Nc1nnc(C#CC2CC2)s1
Just tell me: smaller IC50 value, 1 or 2 ? API: response body contains the label of the selected item.
1

---

- TARGET UNDER TEST: PolQ ATPase enzyme (1-894) (Homo sapiens (Human), UniProt O75417)
- PROCEDURE SUMMARY: Polθ ATPase enzymatic assay (0.5 nM enzyme concentration), ADP-Glo
- Format: biochemical
- SETTINGS: average IC50; 0.5 nM PolQ ATPase enzyme (1-894)
- Description: PolQ ATPase enzyme (1-894) at 0.5 nM is incubated with a 10-point concentration response of inhibitors for 15 min at rt in the following buffer: 50 mM Tris Cl pH 7.5, 10% glycerol, 5 mM DTT, 10 mM MgCl2, 0.1 mg/ml BSA. […] Enzymatic reaction proceeds at rt for 180 min ATP consumption is measured using the ADP-Glo assay from Promega. Luminescence is read on the Envision and IC50 are determined using the variable slope 4-parameters equation. […]
MEASURED PARAMETER: IC50 (nM)

A: COc1cnc(Cl)cc1-c1cnccc1C(=O)Nc1nnc(C#Cc2cc(C)[nH]n2)s1 [Compound 28]
B: Cc1cc(C#Cc2nnc(NC(=O)c3cc(=O)n(C)cc3-c3cc(Cl)ncc3OC(F)F)s2)n[nH]1 [Compound 98]
C: Cc1cnn(-c2cc(-c3cc(C(F)F)ncc3Cl)c(C(=O)Nc3nnc(C#CC4CC4)s3)cn2)c(=O)c1 [Compound 470]
Rank order required: IC50, descending. Provide the ranking by listing each label in its place in the requested order.
B, A, C

P: COc1ccc(C(F)F)cc1-c1cn(CC(N)=O)c(=O)cc1C(=O)Nc1nnc(C#CC2CC2)s1 [Compound 87]
Q: COc1cnc(C(F)F)cc1-c1cc(N2CCNCC2=O)ncc1C(=O)Nc1nnc(C#CC2CC2)s1 [Compound 364]
Kindly identify which of P and Q has the larger recorded IC50 value. API: response body contains the label of the selected item.
Q

---

- TARGET UNDER TEST: PolQ ATPase enzyme (1-894) (Homo sapiens (Human), UniProt O75417)
- PROCEDURE SUMMARY: Polθ ATPase enzymatic assay (0.5 nM enzyme concentration), ADP-Glo
- Type: biochemical
- SETTINGS: average IC50; 0.5 nM PolQ ATPase enzyme (1-894)
MEASURED PARAMETER: IC50 (nM)

COc1cnc(C(F)F)cc1-c1cc(-c2cnn(CC#N)c2)ncc1C(=O)Nc1nnc(C#CC2CC2)s1 = 0.72
COc1ccc(C#N)cc1-c1cnccc1C(=O)Nc1nnc(C#CC2CC2)s1 = 3.5

1: COc1cnc(Cl)cc1-c1cc(-c2cn[nH]c2)ccc1C(=O)Nc1nnc(C#CC2CC2)s1
2: COc1cnc(C(F)F)cc1-c1cc(-c2nnc(C)o2)ncc1C(=O)Nc1nnc(C#CC2CC2)s1
Just tell me: smaller IC50 value, 1 or 2 ? API: response body contains the label of the selected item.
2
(2: 0.27 nM, 1: 0.94 nM)

---

- TARGET UNDER TEST: PolQ ATPase enzyme (1-894) (Homo sapiens (Human))
- PROCEDURE SUMMARY: Polθ ATPase enzymatic assay (0.5 nM enzyme concentration), ADP-Glo
- Format: biochemical
- SETTINGS: average IC50; 0.5 nM PolQ ATPase enzyme (1-894)
MEASURED PARAMETER: IC50 (nM)

Field: example entries. Status: answers known.
COc1cnc(C(F)F)cc1-c1cnccc1C(=O)Nc1nnc(C2C[C@H]2c2ccc(C#N)nc2)s1 (stereo partly drawn) [Compound 266] = 4.4
COc1cnn(-c2cc(-c3cc(C(F)F)ncc3OC)c(C(=O)Nc3nnc(C#CC4CC4)s3)cn2)c(=O)c1 [Compound 420] = 0.31
COc1cnc(C(F)F)cc1-c1cc(-c2cnn(C3CCNCC3)c2)ncc1C(=O)Nc1nnc(C#CC2CC2)s1 [Compound 398] = 2.1
COc1cnc(C(F)F)cc1-c1cc(-c2cccc(C)n2)ncc1C(=O)Nc1nnc(C#CC2CC2)s1 [Compound 422] = 0.54

A: COc1cnc(Cl)cc1-c1cc(-c2cn(C)nn2)ccc1C(=O)Nc1nnc(C#CC2CC2)s1 [Compound 300]
B: COc1cnc(C(F)F)cc1-c1cc(-c2ccc(=O)n(C)c2)ccc1C(=O)Nc1nnc(C#CC2CC2)s1 [Compound 202]
Just tell me: smaller IC50 value, A or B ? API: response body contains the label of the selected item.
B
